Reference source for all entries: the supplement of paper PMC6757056

B1: library; a variant is named by its letters at N, in order (parent)
chain: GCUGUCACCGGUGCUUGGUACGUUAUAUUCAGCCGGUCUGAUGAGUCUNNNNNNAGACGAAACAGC

variants of: B1; test: FACS-Seq fitted mean relative fluorescence mCherry/BFP with ligand (log10 relative fluorescence); HEK293T overexpressing SLC46A1; ligand concentration (+) FACS-Seq: 6 mM; higher = higher reporter protein expression; settings: with (6R,S)-folinic acid; ligand present: yes
Hi, to clarify the labels: yes covers FACS-Seq fitted mean (log10) from 0.3 upward, no covers anything below 0.3.

Answered cases to consult:
1. UAGAAU ... yes
2. AAGUAG ... yes
3. AAAAGG ... yes
4. AAUCGC ... yes

Q. Quick check: does `GCUCUG` have FACS-Seq fitted mean (log10) greater than or equal to 0.3?
A. yes

Q. Could you please find out whether `GUGAAA` has FACS-Seq fitted mean (log10) that meets 0.3 or exceeds it?
A. yes

Q. Decide: is the reported value of FACS-Seq fitted mean (log10) for `GACGAA` equal to or greater than 0.3?
A. yes

Q. Item `UGCCUG` with FACS-Seq fitted mean (log10) of 0.3 or above?
A. yes

Q. Textbook exercise: given the entry `GGAUUU` , state whether its FACS-Seq fitted mean (log10) is greater than or equal to 0.3.
A. yes

Q. Say whether `AGAGCU` shows FACS-Seq fitted mean (log10) of 0.3 or more.
A. no

Q. Is it the case that `AAGAUA` has FACS-Seq fitted mean (log10) reaching or exceeding 0.3?
A. no
